Experiment: Solubility of hemi-fumarate Form A by visual assessment upon solvent addition
Assay type: physicochemical
Settings: acetone, organic solvent or mixture, thermodynamic from solid, Acetone; read-out: Solubility
Structures can show the parent of a compound that is named as a salt.

>  <compound>
Cc1cc(NC(=O)[C@H](O)c2cc(F)cc(F)c2)ccc1-c1cnc(N)c(C(=O)NC(C)C)c1 [Form A of the hemi-fumarate salt]

>  <solubility>
> 50 mg/mL

$$$$

----------
Test: Phase 1a study: pharmacokinetics after oral BID dosing in subjects with advanced solid tumors
Format: in vivo, human
Settings: human, in vivo, po, 600 mg, 600 mg twice daily oral, Cycle 1 Day 21, point estimate, N = 1; read-out: AUC0-last
Counter-ions that a name gives are not always drawn.

>  <molecule>
Cc1cc(NC(=O)[C@H](O)c2cc(F)cc(F)c2)ccc1-c1cnc(N)c(C(=O)NC(C)C)c1 [Form A of the hemi-fumarate salt]

>  <AUC(0-t) (ng·h/mL)>
60800

$$$$

----------
Test: Solubility study of Form A of the compound of formula (I) in solvents (aliquot addition, visual)
Type: physicochemical
Details: organic solvent or mixture, thermodynamic from solid; toluene, room temperature; read-out: Approximate Solubility

>  <compound>
Cc1cc(NC(=O)[C@H](O)c2cc(F)cc(F)c2)ccc1-c1cnc(N)c(C(=O)NC(C)C)c1 [Form A of the compound of formula (I)]

>  <solubility>
< 4000 µg/mL

$$$$

----------
Test: Solubility of mono-fumarate Form A estimated by solvent addition, visual assessment
Format: physicochemical
Conditions: EtOH, organic solvent or mixture, thermodynamic from solid, EtOH; read-out: Solubility
Structures can show the parent of a compound that is named as a salt.

>  <compound>
Cc1cc(NC(=O)[C@H](O)c2cc(F)cc(F)c2)ccc1-c1cnc(N)c(C(=O)NC(C)C)c1 [Form A of the mono-fumarate salt]

>  <solubility>
> 22.5 mg/mL

$$$$

----------
Test: Solubility in water and biologically relevant media (SGF, FeSSIF, FaSSIF), HPLC, pH, XRPD
Assay type: physicochemical
Details: pH 5.57, thermodynamic from solid; FaSSIF, 37° C., 24 hours
Structures can show the parent of a compound that is named as a salt.

>  <compound>
Cc1cc(NC(=O)[C@H](O)c2cc(F)cc(F)c2)ccc1-c1cnc(N)c(C(=O)NC(C)C)c1 [Form A of the hemi-fumarate salt]

>  <solubility at 24 h>
29 µg/mL

$$$$

----------
Assay: Phase 1a study: pharmacokinetics after oral BID dosing in subjects with advanced solid tumors
Type: in vivo, human
Settings: human, in vivo, po, 200 mg, 200 mg twice daily oral, Cycle 1 Day 21, median, N = 4
Structures can show the parent of a compound that is named as a salt.
quantity-name: Tmax (h)

>  <compound>
Cc1cc(NC(=O)[C@H](O)c2cc(F)cc(F)c2)ccc1-c1cnc(N)c(C(=O)NC(C)C)c1 [Form A of the hemi-fumarate salt]

>  <unit-symbol>
h

>  <obs-value>
5

$$$$

----------
Test: Phase 1a study: pharmacokinetics after oral BID dosing in subjects with advanced solid tumors
Assay type: in vivo, human
Settings: human, in vivo, po, 200 mg, 200 mg twice daily oral, Cycle 1 Day 21, geometric mean, N = 4; read-out: AUC0-last
Where a name gives a salt, the structure may show the parent alone.

>  <compound>
Cc1cc(NC(=O)[C@H](O)c2cc(F)cc(F)c2)ccc1-c1cnc(N)c(C(=O)NC(C)C)c1 [Form A of the hemi-fumarate salt]

>  <unit-symbol>
ng·h/mL

>  <AUC(0-t)>
27200

$$$$
